Cited source for all entries: patent US10245264B2

# system-name: sGC α1/β1 heterodimer stably expressed in CHO-K1 cells (CHO-K1/sGC) (Homo sapiens, UniProt Q02108+Q02153)
# Construct: expressed in transfected cells
# Sequence (Q02108 1-690): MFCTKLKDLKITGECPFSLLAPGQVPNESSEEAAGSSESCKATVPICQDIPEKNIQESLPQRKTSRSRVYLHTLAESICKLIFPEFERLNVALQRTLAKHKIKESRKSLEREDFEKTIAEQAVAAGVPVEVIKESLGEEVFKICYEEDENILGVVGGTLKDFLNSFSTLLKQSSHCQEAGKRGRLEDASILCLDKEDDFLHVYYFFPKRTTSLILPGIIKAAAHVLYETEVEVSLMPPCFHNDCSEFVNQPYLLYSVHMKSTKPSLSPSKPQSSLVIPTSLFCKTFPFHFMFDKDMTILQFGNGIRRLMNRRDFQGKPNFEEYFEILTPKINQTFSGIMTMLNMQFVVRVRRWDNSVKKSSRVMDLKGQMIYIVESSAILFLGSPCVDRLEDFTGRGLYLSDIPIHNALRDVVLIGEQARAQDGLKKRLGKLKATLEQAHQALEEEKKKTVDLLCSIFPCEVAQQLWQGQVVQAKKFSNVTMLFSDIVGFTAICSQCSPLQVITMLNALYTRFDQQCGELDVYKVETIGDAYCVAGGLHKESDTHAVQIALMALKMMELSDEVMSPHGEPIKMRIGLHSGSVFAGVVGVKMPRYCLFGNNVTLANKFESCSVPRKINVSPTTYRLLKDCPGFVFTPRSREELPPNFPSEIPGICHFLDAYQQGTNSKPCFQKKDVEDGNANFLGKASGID
# Sequence (Q02153 1-619): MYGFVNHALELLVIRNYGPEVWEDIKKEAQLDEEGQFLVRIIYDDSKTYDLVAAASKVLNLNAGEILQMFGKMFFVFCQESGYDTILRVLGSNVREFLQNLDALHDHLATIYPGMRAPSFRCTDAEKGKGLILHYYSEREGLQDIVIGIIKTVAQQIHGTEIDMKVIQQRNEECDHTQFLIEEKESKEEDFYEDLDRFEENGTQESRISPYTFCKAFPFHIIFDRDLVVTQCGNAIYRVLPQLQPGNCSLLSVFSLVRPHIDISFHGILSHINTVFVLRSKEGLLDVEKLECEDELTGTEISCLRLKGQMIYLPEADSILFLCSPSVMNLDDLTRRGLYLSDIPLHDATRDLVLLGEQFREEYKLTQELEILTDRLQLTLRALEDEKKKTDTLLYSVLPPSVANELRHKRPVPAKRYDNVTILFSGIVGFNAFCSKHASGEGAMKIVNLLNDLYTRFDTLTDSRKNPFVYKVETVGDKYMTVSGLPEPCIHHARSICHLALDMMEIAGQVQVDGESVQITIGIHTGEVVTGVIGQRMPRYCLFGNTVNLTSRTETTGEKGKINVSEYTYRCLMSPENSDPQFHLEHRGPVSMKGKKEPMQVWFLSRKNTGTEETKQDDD
# assay-notes: Cell-based sGC functional assay (CASA assay), cGMP generation by HTRF
# assay-setup: CHO-K1/sGC cells, 1 hr at 37° C., 4P fit; presence or absence of DETA-NO not given; read-out: IP (nM) (inflection point)
endpoint: EC50 (nM)

CC1(c2ccc(Cl)cc2)C(=O)Nc2nc(-c3cn4ccnc4c(NCC4CC4(C)C)n3)nc(N)c21 (stereo not drawn) [Example 56A] | 51

a: CC1(c2ccc(F)cc2)C(=O)Nc2nc(-c3cn4ccnc4c(Oc4cc(F)cc(F)c4F)n3)nc(N)c21 (stereo not drawn) [Example 17A]
b: CC1(c2ccc(F)cc2)C(=O)Nc2nc(-c3cn4ccnc4c(SCCC(F)(F)F)n3)nc(N)c21 (stereo not drawn) [Example 64A]
### Prompt Input pair: a , b . Output: entry with lower EC50. // output: label of the selected item
### Response a
